Ok so here's the combined literature set: IC50 for Tyrosine-protein phosphatase non-receptor type 1 (Homo sapiens, UniProt P18031).
Give just the number in µM; leave the unit off.

In: Checklist item: IC50 tested on Tyrosine-protein phosphatase non-receptor type 1 (Homo sapiens, UniProt P18031), entry CC(C)=CCc1cc(C2OC(=O)C(O)=C2c2ccc(O)cc2)ccc1O (centres unmarked) , value?
Out: 133

In: Given the entry O=C(O)CCCNC(=O)c1ccc(C2Nc3cccc4cccc(c34)N2)cc1 , what IC50 was observed with Tyrosine-protein phosphatase non-receptor type 1 (Homo sapiens, UniProt P18031)?
Out: 22.2

In: Kindly state the measured IC50 obtained for COc1cc2ccncc2c(O)c1Cc1c(O)cc(O)c(OC)c1C(=O)C(C)=O with Tyrosine-protein phosphatase non-receptor type 1 (Homo sapiens, UniProt P18031).
Out: 180

In: Entry O=C(O)CCCCNC(=O)c1ccc(C2Nc3cccc4cccc(c34)N2)nc1 , system Tyrosine-protein phosphatase non-receptor type 1 (Homo sapiens, UniProt P18031): what IC50 was measured?
Out: 3.56

In: Entry O=C(O)CCCCNC(=O)c1ccc(C2Nc3cccc4cccc(c34)N2)cc1 , system Tyrosine-protein phosphatase non-receptor type 1 (Homo sapiens, UniProt P18031): what IC50 was measured?
Out: 5.53

In: API: value(readout= IC50, system= Tyrosine-protein phosphatase non-receptor type 1 (Homo sapiens, UniProt P18031), query= COc1cc2ccncc2c(O)c1Cc1c(OC)cc2ccncc2c1O )
Out: 64.5

In: Which measured IC50 belongs to COc1cc2ccncc2c(O)c1Cc1c(O)c(OC)c2c(c1O)C(=O)O[C@H]2[C@@H](C)O , tested on Tyrosine-protein phosphatase non-receptor type 1 (Homo sapiens, UniProt P18031)?
Out: 190
